meta.source: ChEMBL document CHEMBL1144588

# Test system: Escherichia coli
# TEST NAME: Inhibition of protein synthesis in Escherichia coli by coupled transcription-translation assay
# Type: functional, organism-based
QUANTITY NAME: pIC50
FYI, pIC50 means -log10 of a concentration in mol per litre.

Here is how some molecules turned out for pIC50.
MOLECULE | pIC50
Cc1ccc(S(=O)(=O)N(Cc2ccccc2)c2ccc(Nc3nc(N4C[C@H](N)C[C@H](N)C4)nc(N4C[C@@H](N)C[C@H]4CO)n3)cc2O)cc1 | 4.82
N[C@@H]1C[C@H](N)CN(c2nc(Nc3ccc(NC(=O)c4ccc(Cl)cc4)c(O)c3)nc(N3C[C@@H](N)C[C@@H](O)C3)n2)C1 | 4.40
NC[C@@H]1C[C@H](CN)CN(c2nc(Nc3ccc(NC(=O)c4ccc(Cl)cc4)c(O)c3)nc(N3C[C@H](N)C[C@H](N)C3)n2)C1 | 4.96
N[C@@H]1C[C@H](N)CN(c2nc(Nc3ccc(NC(=O)c4ccc(Cl)cc4)c(O)c3)nc(N3CCCC(O)C3)n2)C1 (some centres not stated) | 4.40
NC1CCN(c2nc(Nc3ccc(Cl)c(Cl)c3)nc(N3CCC(N)CC3)n2)CC1 | 3.10

## Task Given the entry N[C@@H]1C[C@H](N)CN(c2nc(Nc3ccc(NC(=O)c4ccc5ccccc5c4O)cc3)nc(N3C[C@H](N)C[C@H](N)C3)n2)C1 , report its measured pIC50.
## Result 5.15

## Task Another molecule to look at: Cc1ccc(S(=O)(=O)N(Cc2ccccc2)c2ccc(Nc3nc(N4C[C@H](N)C[C@H](N)C4)nc(N4C[C@@H](N)[C@@H](N)C4)n3)cc2O)cc1
## Result 4.44
